# Assay Details: Lipophilicity, logP of compound
# Assay type: physicochemical
# Experimental Context: octanol/water
Metric Name: logP
Write the number on its own, no unit after it.

> print(dat)
                                chem.smiles  metric.name  reported
1  C[C@H]1[C@H](OC(=O)CCc2ccccc2)O[C@@H]2O[C@@]3(C)CC[C@H]4[C@H](C)CC[C@@H]1[C@@]24OO3         logP      5.63

Prompt line: Requested field: logP. Item: `C[C@H]1[C@H](OC(=O)CC(c2ccc(Br)cc2)c2ccc(Br)cc2)O[C@@H]2O[C@@]3(C)CC[C@H]4[C@H](C)CC[C@@H]1[C@@]24OO3`
Response line: 8.81

Prompt line: How about this compound: `C[C@H]1[C@H](OC(=O)CC(c2ccc(F)cc2)c2ccc(F)cc2)O[C@@H]2O[C@@]3(C)CC[C@H]4[C@H](C)CC[C@@H]1[C@@]24OO3`
Response line: 7.47

Prompt line: Consider next the compound `CCCCCCC(=O)O[C@@H]1O[C@@H]2O[C@@]3(C)CC[C@H]4[C@H](C)CC[C@@H]([C@H]1C)[C@@]24OO3` in the same way.
Response line: 5.7

Prompt line: Try this compound too: `CC(=O)O[C@@H]1O[C@@H]2O[C@@]3(C)CC[C@H]4[C@H](C)CC[C@@H]([C@H]1C)[C@@]24OO3`
Response line: 3.37

Prompt line: Please answer likewise for `C[C@H]1[C@H](OC(=O)C(c2ccccc2)c2ccccc2)O[C@@H]2O[C@@]3(C)CC[C@H]4[C@H](C)CC[C@@H]1[C@@]24OO3`
Response line: 6.97

Prompt line: How about this compound: `C[C@H]1[C@H](OC(=O)CC(c2ccccc2)c2ccccc2)O[C@@H]2O[C@@]3(C)CC[C@H]4[C@H](C)CC[C@@H]1[C@@]24OO3`
Response line: 7.15

* * *

# Tested on: Plasmodium yoelii nigeriensis
# Assay Details: Antimalarial activity against blood stage multidrug-resistant Plasmodium yoelii nigeriensis infected swiss mouse assessed as protection against Plasmodium yoelii nigeriensis infection at 12 mg/kg, po administered once daily for 3 days measured on day 4 and subsequently twice a week up to 28 days by microscopy
# Type: functional
The source made the active and inactive calls. No cut-off for these calls is given here.
Metric Name: Activity

Example cases with answers are listed next.
> print(dat)
                                chem.smiles  reported
1  C[C@H]1[C@H](OC(=O)C(c2ccccc2)c2ccccc2)O[C@@H]2O[C@@]3(C)CC[C@H]4[C@H](C)CC[C@@H]1[C@@]24OO3      100%
2  C[C@H]1[C@H](OC(=O)CC(c2ccccc2)c2ccccc2)O[C@@H]2O[C@@]3(C)CC[C@H]4[C@H](C)CC[C@@H]1[C@@]24OO3  inactive
3  C[C@H]1[C@H](OC(=O)CC(c2ccc(Br)cc2)c2ccc(Br)cc2)O[C@@H]2O[C@@]3(C)CC[C@H]4[C@H](C)CC[C@@H]1[C@@]24OO3  inactive
4  C[C@H]1[C@H](OC(=O)CC(c2ccc(Cl)cc2)c2ccc(Cl)cc2)O[C@@H]2O[C@@]3(C)CC[C@H]4[C@H](C)CC[C@@H]1[C@@]24OO3  inactive

Prompt line: # lookup: Activity of `COc1ccc(C(CC(=O)O[C@@H]2O[C@@H]3O[C@@]4(C)CC[C@H]5[C@H](C)CC[C@@H]([C@H]2C)[C@@]35OO4)c2ccc(OC)cc2)cc1`
Response line: 80%

Prompt line: Please do the same for `C[C@H]1[C@H](OC(=O)CC(c2ccc(F)cc2)c2ccc(F)cc2)O[C@@H]2O[C@@]3(C)CC[C@H]4[C@H](C)CC[C@@H]1[C@@]24OO3` as well.
Response line: 80%
